List of AC50 values.
tested-target: human PAH with the R408W mutation (Homo sapiens, UniProt P00439, R408W)
Construct: expressed in transfected cells
assay-notes: Cell Based Phenylalanine Flux Assay
run-parameters: A375 cells expressing human R408W PAH; 24 hrs compound incubation; 13C-Tyrosine by LC-MS; average where tested multiple times; read-out: AC50

Recorded AC50, per entry:
Cn1cc(-c2nnc(C(=O)N3CCc4[nH]cnc4[C@H]3c3cc4c(OC(F)(F)F)cccn4n3)o2)cn1 [Example 1682]: < 500 nM
Cc1cccn2nc([C@@H]3c4nc[nH]c4CCN3C(=O)c3nnc(C4(C)CC4)o3)cc12 [Example 1323]: < 500 nM

### Prompt Consider the compound shown here: CC(C)n1nccc1C(=O)N1CCc2[nH]cnc2[C@H]1c1cc2ccccn2n1 [Example 856] What is its recorded AC50?
### Response < 500 nM

### Prompt Consider the compound shown here: Cc1ccc(-c2nnc(C(=O)N3CCc4[nH]cnc4[C@@H]3c3cc4c(C)cccn4n3)o2)nc1 [Example 870] What is its recorded AC50?
### Response > 5000 nM

### Prompt Consider the compound shown here: CC1(c2nnc(C(=O)N3CCc4[nH]cnc4[C@H]3c3cc4cccc(C(F)(F)F)n4n3)o2)CC1 [Example 1354] What is its recorded AC50?
### Response 500 to 1000 nM

### Prompt Consider the compound shown here: O=C(c1nnc(-c2ccn(C(F)(F)F)n2)o1)N1CCc2[nH]cnc2[C@@H]1c1cc2ccccn2n1 [Example 1507] What is its recorded AC50?
### Response > 5000 nM

### Prompt Consider the compound shown here: O=C(c1nnc(-c2ccccn2)o1)N1CCc2[nH]cnc2[C@H]1c1cc2cccc(Cl)n2n1 [Example 1042] What is its recorded AC50?
### Response < 500 nM

### Prompt Consider the compound shown here: COc1ccc(-c2nnc(C(=O)N3CCc4[nH]cnc4[C@@H]3c3cc4cccc(C)n4n3)o2)nc1 [Example 911] What is its recorded AC50?
### Response > 5000 nM

----------
tested-target: human PAH with the R408W mutation (Homo sapiens, UniProt P00439, R408W)
Construct: expressed in transfected cells
Sequence (P00439 1-452 R408W): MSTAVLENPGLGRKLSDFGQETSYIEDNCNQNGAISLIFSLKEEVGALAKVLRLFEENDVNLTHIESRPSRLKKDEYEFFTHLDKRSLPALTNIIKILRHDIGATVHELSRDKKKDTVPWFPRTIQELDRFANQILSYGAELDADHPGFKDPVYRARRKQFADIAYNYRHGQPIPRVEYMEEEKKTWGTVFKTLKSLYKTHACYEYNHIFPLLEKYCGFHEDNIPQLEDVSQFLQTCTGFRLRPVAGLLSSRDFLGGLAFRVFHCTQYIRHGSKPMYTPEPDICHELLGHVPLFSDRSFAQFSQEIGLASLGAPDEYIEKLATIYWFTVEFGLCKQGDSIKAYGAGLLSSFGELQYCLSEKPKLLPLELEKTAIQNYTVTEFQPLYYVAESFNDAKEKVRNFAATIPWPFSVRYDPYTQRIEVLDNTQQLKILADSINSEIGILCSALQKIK
assay-notes: Cell Based Phenylalanine Flux Assay;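 note: after compound treatment, cells received sepiapterin plus isotope-labelled Phenylalanine for 4 hours, then labelled Tyrosine in the medium was quantified, 10-point 2-fold dilution series run in duplicate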
run-parameters: A375 cells expressing human R408W PAH; 24 hrs compound incubation; 13C-Tyrosine by LC-MS; average where tested multiple times; read-out: AC50
measured-endpoint: AC50

Recorded AC50, per entry:
Cc1ccc2c(C(=O)N3CCc4[nH]cnc4[C@@H]3c3cc4c(C)cccn4n3)cnn2c1: > 5 µM
Cn1nccc1-c1nnc(C(=O)N2CCc3[nH]cnc3[C@@H]2c2cc3c(F)cccn3n2)o1: > 5 µM
O=C(c1nnc(-c2ncccc2F)o1)N1CCc2[nH]cnc2[C@H]1c1cc2cccc(F)n2n1: < 0.5 µM

### Prompt Consider the compound shown here: "O=C(c1nnc(-c2ccn(C(F)F)n2)o1)N1CCc2[nH]cnc2[C@@H]1c1cc2c(C(F)(F)F)cccn2n1" What is its recorded AC50?
### Response 1 to 5 µM

Where do these numbers come from? They come from patent US20230365592A1.
